Molecular target: T1, activated human alfa-2-macroglobulin (α2M_MeNH2) (human, UniProt P01023 24-1474)
T1 construct: mature
T1 sequence (looked up): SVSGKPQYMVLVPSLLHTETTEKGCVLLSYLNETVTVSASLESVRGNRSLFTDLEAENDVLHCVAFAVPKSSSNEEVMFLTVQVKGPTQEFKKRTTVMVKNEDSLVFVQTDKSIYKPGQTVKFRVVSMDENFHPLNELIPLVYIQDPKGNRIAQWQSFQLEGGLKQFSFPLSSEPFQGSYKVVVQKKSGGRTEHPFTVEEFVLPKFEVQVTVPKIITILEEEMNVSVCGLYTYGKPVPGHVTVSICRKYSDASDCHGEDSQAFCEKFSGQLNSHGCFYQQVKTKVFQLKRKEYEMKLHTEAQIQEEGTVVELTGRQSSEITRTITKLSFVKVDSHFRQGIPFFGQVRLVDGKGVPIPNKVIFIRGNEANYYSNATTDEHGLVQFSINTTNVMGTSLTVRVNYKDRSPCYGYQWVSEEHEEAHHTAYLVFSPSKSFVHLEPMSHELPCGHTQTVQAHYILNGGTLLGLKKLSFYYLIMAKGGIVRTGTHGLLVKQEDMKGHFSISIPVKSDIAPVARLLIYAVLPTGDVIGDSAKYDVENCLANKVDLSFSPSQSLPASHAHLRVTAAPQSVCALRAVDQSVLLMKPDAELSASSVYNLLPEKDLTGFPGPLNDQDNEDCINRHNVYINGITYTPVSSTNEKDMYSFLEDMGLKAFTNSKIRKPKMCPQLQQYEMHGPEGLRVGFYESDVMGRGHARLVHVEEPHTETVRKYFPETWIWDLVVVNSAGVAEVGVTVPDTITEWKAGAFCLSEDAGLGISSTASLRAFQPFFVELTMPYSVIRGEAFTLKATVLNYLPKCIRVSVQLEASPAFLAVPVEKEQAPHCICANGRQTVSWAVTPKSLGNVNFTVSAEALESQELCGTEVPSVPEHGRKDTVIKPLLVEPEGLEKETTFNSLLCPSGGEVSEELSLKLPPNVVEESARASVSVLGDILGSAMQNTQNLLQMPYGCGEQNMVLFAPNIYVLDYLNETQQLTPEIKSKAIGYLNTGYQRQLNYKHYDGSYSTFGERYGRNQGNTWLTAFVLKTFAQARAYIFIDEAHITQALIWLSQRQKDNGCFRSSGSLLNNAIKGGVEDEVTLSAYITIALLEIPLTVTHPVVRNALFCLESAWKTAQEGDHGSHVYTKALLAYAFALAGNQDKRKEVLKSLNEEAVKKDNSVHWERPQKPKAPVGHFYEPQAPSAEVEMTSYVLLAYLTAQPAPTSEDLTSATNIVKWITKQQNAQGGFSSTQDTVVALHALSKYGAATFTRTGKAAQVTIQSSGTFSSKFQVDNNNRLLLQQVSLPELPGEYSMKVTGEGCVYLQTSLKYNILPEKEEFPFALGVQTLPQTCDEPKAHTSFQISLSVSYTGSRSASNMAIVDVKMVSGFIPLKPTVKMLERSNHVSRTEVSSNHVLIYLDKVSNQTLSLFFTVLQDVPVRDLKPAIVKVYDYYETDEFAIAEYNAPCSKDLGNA
Test: competition ELISA, α2M* coated, DIIIE1PRSbiot as labelled ligand
Measured fold increase of IC50 against wild-type DIIIE1PRS, listed per entry.
quantity-measured: fold increase of IC50 against wild-type DIIIE1PRS

binder: DIIIE1PRS alanine mutant, variant K361 (other, also called Lys361 to Ala) MDKLTLKGMSYVMCTGSFKLEKEVAETQHGTVLVQVKYEGTDAPCKIPFSTQDEKGVTQNGRLITANPIVTDAEKPVNIETEPPFGESYIVVGAGEKALKLSWFKKGSSIGVDHHHHHH
meas-value: > 10 fold

binder: DIIIE1PRS alanine mutant, variant P372 (other, also called Pro372 to Ala) MDKLTLKGMSYVMCTGSFKLEKEVAETQHGTVLVQVKYEGTDAPCKIPFSTQDEKGVTQNGRLITANPIVTDKEKPVNIETEPAFGESYIVVGAGEKALKLSWFKKGSSIGVDHHHHHH
meas-value: ≥ 2 fold

binder: DIIIE1PRS alanine mutant, variant V365 (other, also called Val365 to Ala) MDKLTLKGMSYVMCTGSFKLEKEVAETQHGTVLVQVKYEGTDAPCKIPFSTQDEKGVTQNGRLITANPIVTDKEKPANIETEPPFGESYIVVGAGEKALKLSWFKKGSSIGVDHHHHHH
meas-value: > 10 fold

binder: DIIIE1PRS alanine mutant, variant G374 (other, also called Gly374 to Ala) MDKLTLKGMSYVMCTGSFKLEKEVAETQHGTVLVQVKYEGTDAPCKIPFSTQDEKGVTQNGRLITANPIVTDKEKPVNIETEPPFAESYIVVGAGEKALKLSWFKKGSSIGVDHHHHHH
meas-value: ≥ 2 fold

binder: DIIIE1PRS alanine mutant, variant K363 (other, also called Lys363 to Ala) MDKLTLKGMSYVMCTGSFKLEKEVAETQHGTVLVQVKYEGTDAPCKIPFSTQDEKGVTQNGRLITANPIVTDKEAPVNIETEPPFGESYIVVGAGEKALKLSWFKKGSSIGVDHHHHHH
meas-value: ≥ 2 fold

binder: DIIIE1PRS alanine mutant, variant E342 (other, also called Glu342 to Ala) MDKLTLKGMSYVMCTGSFKLEKEVAETQHGTVLVQVKYEGTDAPCKIPFSTQDAKGVTQNGRLITANPIVTDKEKPVNIETEPPFGESYIVVGAGEKALKLSWFKKGSSIGVDHHHHHH
meas-value: ≥ 2 fold

binder: DIIIE1PRS alanine mutant, variant K385 (other, also called Lys385 to Ala) MDKLTLKGMSYVMCTGSFKLEKEVAETQHGTVLVQVKYEGTDAPCKIPFSTQDEKGVTQNGRLITANPIVTDKEKPVNIETEPPFGESYIVVGAGEAALKLSWFKKGSSIGVDHHHHHH
meas-value: > 10 fold

binder: DIIIE1PRS alanine mutant, variant P364 (other) MDKLTLKGMSYVMCTGSFKLEKEVAETQHGTVLVQVKYEGTDAPCKIPFSTQDEKGVTQNGRLITANPIVTDKEKAVNIETEPPFGESYIVVGAGEKALKLSWFKKGSSIGVDHHHHHH
meas-value: > 10 fold

binder: DIIIE1PRS alanine mutant, variant T346 (other) MDKLTLKGMSYVMCTGSFKLEKEVAETQHGTVLVQVKYEGTDAPCKIPFSTQDEKGVAQNGRLITANPIVTDKEKPVNIETEPPFGESYIVVGAGEKALKLSWFKKGSSIGVDHHHHHH
meas-value: ≥ 2 fold
